Target: T1, VEGF-A truncated nascent chain (52 amino-terminal residues of VEGF-A plus His6 and two valines) translated in … (human, ε-labelled biotinylated lysine incorporated from Transcend tRNA (positions not stated))
T1 construct: in one setting the ribosomes were dissociated with RNAse ONE before elution; also called VEGF-A nascent chains; VEGF-A-translating ribosomes
T1 chain: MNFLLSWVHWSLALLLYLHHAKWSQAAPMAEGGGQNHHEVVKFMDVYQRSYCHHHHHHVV
Assay: phage panning, biotinylated ribosome-bound nascent chain in streptavidin wells; selection only
Bridges are numbered along the chain shown (N, C = ends). Where no end group is shown, it is not given here.
Metric: binding result

>>> value_reported("CSLNSDLFC (disulfide 1-9, From the Ph.D.-C7C library; on phage; not shown: M13 pIII minor coat protein, peptide at its amino-terminus) [SLNSDLF (SEQ ID NO: 26), displayed on M13 phage]")
"binds"
>>> value_reported("CLALSAARC (disulfide 1-9; not fully specified, From the Ph.D.-C7C library; on phage; not shown: M13 pIII minor coat protein, peptide at its amino-terminus) [LALSAAR (SEQ ID NO: 25), displayed on M13 phage]")
"binds"
>>> value_reported("CEIRTPSVC (disulfide 1-9; not fully specified, From the Ph.D.-C7C library; on phage; not shown: M13 pIII minor coat protein, peptide at its amino-terminus) [EIRTPSV (SEQ ID NO: 21), displayed on M13 phage]")
"binds"
